Source of measurements: the Immune Epitope Database (IEDB)

# IC50 listing for each entry below
# systemUnderTest: HLA-A*02:01
# procedureDetails: IEDB peptide-MHC binding, purified MHC/competitive/radioactivity; bounds were set here for any values at or beyond the usual limits of such assays
# assaySetup: source organism: Vaccinia virus WR
Use nM as the unit, but write only the number.

TLIQYRQQL ... 134

Consider the record given below.
Form field IC50, entry "LLNLLLWPL" : 0.073

###

# systemUnderTest: HLA-A*02:03
# procedureDetails: IEDB peptide-MHC binding, purified MHC/competitive/radioactivity; bounds were set here for any values at or beyond the usual limits of such assays
# assaySetup: source organism: Vaccinia virus WR
reportedMetric: pIC50
// returns pIC50 (minus log10 of molar concentration), number only

NMCNSDVSV ... 7.52
KLLNMRDLI ... 6.48
VMPEKRNVVV ... 6.52

The sequence "MIYDLNAVTT" showed pIC50 equal to 6.32
